Reported pIC50 on SYK kinase (Homo sapiens, UniProt P43405) for assorted compounds, compiled from publications.
pIC50: −log10 of the molar value.

1) Cc1cc(-c2cc3nccnc3c(OC[C@@H]3CN(C(=O)[C@H](C)O)CCO3)n2)ccc1N(C)C :: 7.31
2) COc1ccccc1-n1c(=O)[nH]c2c(C(N)=O)nc(-c3cccc(O)c3Cl)nc21 :: 5.30 to 7.00
3) c1cncc(-c2nc(Nc3ccc(N4CCOCC4)cc3)c3n[nH]cc3n2)c1 :: 6.00 to 7.00

Form field: reported pIC50 of `CC1(C)C(=O)NCCN1c1ncc(-c2cccc(Nc3nccc(C4CC4)n3)c2)o1`
≥ 7.00

Cool, now `COCCOCCOCCOc1cc(Nc2cc(Oc3ccc(NC(=O)Nc4cc(C(C)(C)C)cc(P(C)(C)=O)c4)c4ccccc34)ccn2)cc(OC)c1`
< 6.05

* * *

pIC50: −log10 of the molar value.
Reported pIC50 on SYK kinase (Homo sapiens) for assorted compounds, compiled from publications.
Hi, to clarify the labels: Y covers pIC50 from 7 upward, N covers anything below 7.

Here are 3 compounds together with their reported answers.
1. CC1(C)C(=O)Nc2cc(Nc3nc4c(N5CCC(C(N)=O)C5)nccn4n3)ccc21 (stereo not drawn) :: Y
2. Cc1nn(C)c2cc(-c3nc(N[C@@H]4CCCC[C@@H]4N)c(F)c4c3C(=O)NC4)sc12 :: Y
3. COc1cc(Nc2cc(Oc3ccc(NC(=O)Nc4cc(C(C)(C)C)cc(OCCO)c4OC)c4ccccc34)ccn2)cc(C(N)=O)c1 :: N

Threshold query (pIC50 >= 7) on `COC(C)(C)c1ccc(-c2cc3nccnc3c(OC[C@@H]3CN(S(C)(=O)=O)CCO3)n2)cc1`
Y

Cool, now `COc1cncc(Nc2cc(Oc3ccc(NC(=O)Nc4cc(C(C)(C)C)cc(P(C)(C)=O)c4OC)c4ccccc34)ccn2)c1`
N

Cool, now `Cc1ccnc(Nc2cccc(-c3cnc(N4CCNC(=O)C4(C)C)o3)c2)n1`
Y

* * *

Reported IC50 on SYK kinase (Homo sapiens, UniProt P43405) for assorted compounds, compiled from publications.

Some entries whose results are on file:
1) COc1cc(Nc2cc(Oc3ccc(NC(=O)Nc4cc(C(C)(C)C)cc(C(=O)NCCN5CC[S+]([O-])CC5)c4OC)c4ccccc34)ccn2)cc(OC)c1 :: 156 nM
2) c1nn(C2CCNC2)cc1Nc1nc(C2CCC2)nc2cn[nH]c12 (stereo not shown) :: < 10 nM
3) CC(C)(C#N)c1ccc(-c2cc3nccnc3c(OC[C@@H]3CN(S(C)(=O)=O)CCO3)n2)cc1 :: 17 nM

Lab request: please report IC50 under test system SYK kinase (Homo sapiens, UniProt P43405) for `O=[N+]([O-])c1cccc(Oc2cccc(Nc3nccc(-c4nccs4)n3)c2)c1`
> 2000 nM

* * *

pIC50: −log10 of the molar value.
Reported pIC50 on SYK kinase (Homo sapiens, UniProt P43405) for assorted compounds, compiled from publications.

Some entries whose results are on file:
1. Cn1cc(-c2nccn3nc(Nc4ccc5nnn(C)c5c4)nc23)cn1 :: 5.52 to 6.52
2. CC(C)(C#N)n1cc(Nc2nc3ccc(S(C)(=O)=O)cc3c3cn[nH]c23)cn1 :: > 8.00
3. FC(F)(F)c1ccccc1COc1cccc(Nc2nccc(-c3nccs3)n2)c1 :: < 5.70
4. COc1c(NC(=O)Nc2ccc(Oc3ccnc(Nc4ccccc4)c3)c3ccccc23)cc(C(C)(C)C)cc1P(C)(C)=O :: 6.73
5. COc1cc(O)ccc1-c1cc2nccc(-c3ccc4[nH]cnc4c3)c2o1 :: 5.52 to 6.52

Form field: reported pIC50 of `COc1cc2ccc1OCCCCNC(=O)[C@@H](Cc1ccccc1)NC(=O)[C@]1(C)Oc3ccc(cc3NC1=O)Nc1nc(ncc1F)N2`
5.52 to 6.52

Cool, now `COc1cc(-c2cc3nccc(-c4cccc5[nH]ccc45)c3o2)cc(OC)c1OC`
> 6.52
